Target entity: Solute carrier family 12 member 5 (Homo sapiens, UniProt Q9H2X9)
Sequence (Q9H2X9 whole entry): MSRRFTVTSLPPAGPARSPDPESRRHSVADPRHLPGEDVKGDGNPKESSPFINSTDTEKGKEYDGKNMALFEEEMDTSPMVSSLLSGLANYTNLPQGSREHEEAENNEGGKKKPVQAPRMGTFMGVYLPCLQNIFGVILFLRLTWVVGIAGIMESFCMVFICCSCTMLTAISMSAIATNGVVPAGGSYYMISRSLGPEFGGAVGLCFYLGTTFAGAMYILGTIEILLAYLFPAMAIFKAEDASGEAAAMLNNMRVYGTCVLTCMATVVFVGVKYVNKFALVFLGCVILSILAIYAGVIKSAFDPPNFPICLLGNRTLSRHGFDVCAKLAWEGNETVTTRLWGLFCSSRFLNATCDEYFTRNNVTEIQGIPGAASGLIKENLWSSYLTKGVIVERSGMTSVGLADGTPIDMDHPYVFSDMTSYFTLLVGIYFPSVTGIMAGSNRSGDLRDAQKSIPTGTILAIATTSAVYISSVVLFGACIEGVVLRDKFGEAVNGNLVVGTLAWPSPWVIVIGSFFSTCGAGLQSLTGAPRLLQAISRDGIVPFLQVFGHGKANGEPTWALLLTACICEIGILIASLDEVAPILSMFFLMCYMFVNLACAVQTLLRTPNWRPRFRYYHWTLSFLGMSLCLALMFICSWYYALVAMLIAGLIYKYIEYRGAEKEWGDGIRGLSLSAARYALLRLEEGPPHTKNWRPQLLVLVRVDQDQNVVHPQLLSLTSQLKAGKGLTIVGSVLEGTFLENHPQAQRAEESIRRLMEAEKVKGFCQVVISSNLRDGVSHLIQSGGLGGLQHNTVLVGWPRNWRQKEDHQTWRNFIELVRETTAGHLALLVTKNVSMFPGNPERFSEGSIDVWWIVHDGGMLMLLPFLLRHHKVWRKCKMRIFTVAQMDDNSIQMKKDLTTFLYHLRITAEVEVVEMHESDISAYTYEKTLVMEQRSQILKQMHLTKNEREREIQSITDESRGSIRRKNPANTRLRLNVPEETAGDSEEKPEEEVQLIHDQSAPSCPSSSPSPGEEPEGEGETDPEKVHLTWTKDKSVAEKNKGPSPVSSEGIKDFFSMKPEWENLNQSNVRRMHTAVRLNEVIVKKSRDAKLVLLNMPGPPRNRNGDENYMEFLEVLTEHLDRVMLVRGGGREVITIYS
Protocol notes: concentration-response of KCC2 transport modulators – cell-based, HEK293 KCC2, FluoZin-2 fluorescence, dose response (AID 1736)
Recorded metric: EC50 (nM)

{"columns": ["Compound", "Endpoint value"],
 "data": [
  ["Cc1[nH]c2ccccc2c1SCC(=O)N1CCN(c2ccccc2)CC1", 5460],
  ["Cc1ccc(C(=O)O)cc1-c1ccc(C=C2NC(=O)N(c3ccccc3)C2=O)o1", 10700],
  ["O=C(NNc1nc(-c2ccc(F)cc2)cs1)c1ccccc1", 928],
  ["CCN(CC)c1ccc2c(C)c(-c3ccc(N)cc3)c(=O)oc2c1", 1150],
  ["Cc1ccc(S(=O)(=O)N2CCC(=O)N(C(COCc3ccccc3)Cc3ccccc3)CC2)cc1 (stereo unspecified)", 1240],
  ["Cc1nc2cc(C(F)(F)F)ccc2n1C1CCN(Cc2nnnn2Cc2ccc3c(c2)OCO3)CC1", 3280]
]}
